Let's look at some IC50 data for UniProt:P37268 that I collected from the literature.
Label key: 1 means IC50 under 200 nM; -1 means IC50 of 200 nM or more.

# count of solved cases: 7
compound	assignedClass
O=C(O)CN1C[C@H](c2ccccc2Cl)c2cc(Cl)ccc2[C@@H](Cc2ccccc2)C1=O (racemic)	-1
COc1cccc(C(O)c2cc(Cl)ccc2N(CC(C)(C)C)C(=O)CCC(=O)N2CCC(C(=O)O)CC2)c1OC (stereo not drawn)	1
CCOC(=O)C1CCN(C(=O)CCC(=O)N(CC(C)(C)C)c2ccc(Cl)cc2C(O)c2ccc(F)cc2Cl)CC1 (stereo not drawn)	1
CC(C)=CCC/C(C)=C/CC/C(C)=C/CC1(C/C=C(\C)CC/C=C(\C)CCC=C(C)C)P(=O)(O)CP(=O)(O)OP1(=O)O (stereo not drawn)	-1
CC(C)(C)CN(C(=O)CCC(=O)N1CCCC(C(=O)O)C1)c1ccc(Cl)cc1C(O)c1cccc2c1OCCO2 (stereo not drawn)	1
CC(C)(C)CN(C(=O)CCC(=O)N1CCCC(C(=O)O)C1)c1ccc(Cl)cc1C(O)c1ccccc1F (stereo not drawn)	-1
CC(C)(C)CN(C(=O)CCC(=O)N1CCCC(C(=O)O)C1)c1ccc(Cl)cc1C(O)c1ccc(F)cc1Cl (stereo not drawn)	1

Kindly consider the entry below.
QUERY: Given the entry CC(C)C[C@H]1C(=O)N(CC(=O)N2CCC(CC(=O)O)CC2)C[C@H](c2ccccc2Cl)c2cc(Cl)ccc21 (racemic) , would its reported IC50 be below 200 nM?
RESULT: -1

----------
Let's look at some IC50 data for Squalene synthase (Homo sapiens, UniProt P37268) that I collected from the literature.
Write it as a number; the unit nM goes unstated.

Solved cases (2 shown):
compound	IC50 [nM]
C=C(C)C[C@H]1C(=O)N(CC(=O)O)C[C@H](c2ccccc2Cl)c2cc(Cl)ccc21 (racemic)	5500
C[C@H](NC(=O)C[C@@H](CC(=O)O)C(=O)O)[C@@H](Cc1ccc(Cl)c(Cl)c1)c1ccc(-c2ccccc2)c(F)c1	0.52

Summary: CC(C)(C)CN(C(=O)CCC(=O)N1CCC(C(=O)O)CC1)c1ccc(Cl)cc1C(O)c1ccccc1Cl (centres undefined) , Squalene synthase (Homo sapiens, UniProt P37268), IC50 = 130
